Some molecules, each annotated with its measured solubility.
# experimentalProtocol: water solubility
# Assay type: physicochemical
# recordedConditions: Table I
Counter-ions that a name gives are not always drawn.

# molecule, solubility [µg/mL]
data = [
    ("COc1ccc2nc3cc(Cl)ccc3c(NCCCN(C)CCCNc3c4ccc(Cl)cc4nc4ccc(OC)cc34)c2c1 [Example 12 (acetic acid salt)]", 10000),
    ("COc1ccc2nc3cc(Cl)ccc3c(NCCCNCCCNc3c4ccc(Cl)cc4nc4ccc(OC)cc34)c2c1", 8000),
]
